Test system: CCRIS mutagenicity, Ames/micronucleus/aberration tests
ASSAY_DETAILS: CCRIS mutagenicity studies
DETAILS: Test System: AMES SALMONELLA TYPHIMURIUM; Strain/Indicator: TA100; Metabolic Activation: NONE; Method: PREINCUBATION
Activity calls are given as the source filed them. The rule behind the calls is not given here.
Outcome codes: Yes = active, No = inactive

COMPOUND	CLASS_NAME
Cc1c2ccccc2cc2ccc3c(c12)C=CC(=O)C3=O	No
Nc1cc([N+](=O)[O-])cc([N+](=O)[O-])c1	Yes
Nc1cc([N+](=O)[O-])cc(Cl)c1O	Yes
O=S(=O)(O)c1ccc2c(N=Nc3ccccc3)c(O)ccc2c1	No
C[C@H]1CCCC(=O)CCC/C=C/c2cc(O)cc(O)c2C(=O)O1	No
Cc1cccc(NO)c1C	Yes
CC(C)CC(C)N (centres undefined)	No
c1ccc2c(c1)Nc1ccccc1S2	No
C[N+](=O)[O-]	No
CC(C)N	No
COc1ccc2c(c1)c(CC(=O)O)c(C)n2C(=O)c1ccc(Cl)cc1	No
COc1cc([N+](=O)[O-])ccc1N=NC(C(C)=O)C(=O)Nc1ccccc1OC (centres undefined)	No
C=C(C=O)CCCC	Yes
CCCCCCOC(=O)c1ccccc1C(=O)OCCCCCC	No

###

System: CCRIS mutagenicity, Ames/micronucleus/aberration tests
ASSAY_DETAILS: CCRIS mutagenicity studies
DETAILS: Test System: AMES SALMONELLA TYPHIMURIUM; Strain/Indicator: TA97A; Metabolic Activation: NONE; Method: STANDARD PLATE
Activity calls are given as the source filed them. No rule for the calls is given here.
Outcomes: TRUE for active, FALSE for inactive

COMPOUND	CLASS_NAME
COCC=O	TRUE
O=S(=O)(c1ccc(Cl)cc1)c1cc(Cl)c(Cl)cc1Cl	FALSE
COC1=CC(=O)c2c(nc(C)c3c4c([nH]c23)CCCC4)C1=O	FALSE
N#C/C(=C/C=C/c1ccccc1[N+](=O)[O-])c1ccc(Br)cc1	TRUE
COc1ccc([Se]c2ccc(OC)cc2)cc1	FALSE
COc1ccc2[nH]cc(CCNC(C)=O)c2c1	FALSE
Cc1cc2nc3ccc(=[N+](C)C)cc-3sc2cc1N	TRUE
CC(=O)O[C@H]1CC[C@@]2(C)C(=CC[C@H]3[C@@H]4CC[C@H]([C@H](C)CCCC(C)C)[C@@]4(C)CC[C@@H]32)C1	FALSE
O=CCCCC=O	FALSE
CCOCCO	FALSE
Oc1c(Cl)c(Cl)c(Cl)c(Cl)c1Cl	FALSE
CC(C)[C@@H]1CC[C@@H](C)C[C@H]1O	FALSE
CC(/C=C(/C#N)c1ccc(Br)cc1)C(c1ccccc1)C(C#N)c1ccc(Br)cc1 (centres undefined)	FALSE
CCCC[C@@H](C)[C@@H](OC(=O)C[C@@H](CC(=O)O)C(=O)O)[C@H](C[C@@H](C)CCCCCC[C@@H](O)C[C@H](O)[C@H](C)N)OC(=O)C[C@@H](CC(=O)O)C(=O)O	FALSE

###

System: CCRIS mutagenicity, Ames/micronucleus/aberration tests
ASSAY_DETAILS: CCRIS mutagenicity studies
DETAILS: Test System: AMES SALMONELLA TYPHIMURIUM; Strain/Indicator: TA1538; Metabolic Activation: NONE
Calls of active or inactive are those of the source. How the calls were made is not given here.
Labels: yes (active), no (inactive)

COMPOUND	CLASS_NAME
N[C@@H](CCC(=O)NNc1ccc(CO)cc1)C(=O)O	no
CCN(CC)CC#CCOC(=O)C(O)(c1ccccc1)C1CCCCC1 (centres undefined)	no
O=[N+]([O-])c1ccc2c3c(cccc13)-c1ccccc1-2	yes
CC(=O)Nc1ccc(C(=O)CCl)cc1	no

###

Test system: CCRIS mutagenicity, Ames/micronucleus/aberration tests
ASSAY_DETAILS: CCRIS mutagenicity studies
DETAILS: Test System: AMES SALMONELLA TYPHIMURIUM; Strain/Indicator: TA1537; Metabolic Activation: NONE
The source made the active and inactive calls. No rule for the calls is given here.
Labels: 1 for active, -1 for inactive

COMPOUND	SYSTEM	CLASS_NAME
C=CCOc1ccccc1OCC(O)CNC(C)C (centres undefined)	CCRIS mutagenicity, Ames/micronucleus/aberration tests	-1
CC[C@@]1(O)C[C@H](O[C@H]2C[C@H](N(C)C)[C@H](O)[C@H](C)O2)c2c(cc3c(c2O)C(=O)c2c(O)ccc(O)c2C3=O)[C@H]1C(=O)OC	CCRIS mutagenicity, Ames/micronucleus/aberration tests	1
O=[N+]([O-])c1ccc2c3c(cccc13)-c1ccccc1-2	CCRIS mutagenicity, Ames/micronucleus/aberration tests	1
N[C@@H](CCC(=O)NNc1ccc(CO)cc1)C(=O)O	CCRIS mutagenicity, Ames/micronucleus/aberration tests	1
NC(=O)OC[C@@H]1[C@H](NC(=O)/C(=N\OCC(=O)O)c2csc(N)n2)C(=O)N1S(=O)(=O)O	CCRIS mutagenicity, Ames/micronucleus/aberration tests	-1
CC(=O)N[C@@H]1[C@@H](O[C@@H]2O[C@H](C(=O)O)[C@@H](O[C@@H]3O[C@H](CO)[C@@H](O)[C@H](O[C@@H]4O[C@H](C(=O)O)[C@@H](O)[C@H](O)[C@H]4O)[C@H]3NC(C)=O)[C@H](O)[C@H]2O)[C@H](O)[C@@H](CO)O[C@H]1O	CCRIS mutagenicity, Ames/micronucleus/aberration tests	-1
CCCC(=O)Nc1ccc(OCC(O)CNC(C)C)c(C(C)=O)c1 (centres undefined)	CCRIS mutagenicity, Ames/micronucleus/aberration tests	-1
Nc1c2cc([N+](=O)[O-])ccc2nc2ccc([N+](=O)[O-])cc12	CCRIS mutagenicity, Ames/micronucleus/aberration tests	1
CCN(CC)CC#CCOC(=O)C(O)(c1ccccc1)C1CCCCC1 (centres undefined)	CCRIS mutagenicity, Ames/micronucleus/aberration tests	-1

###

Tested on: CCRIS mutagenicity, Ames/micronucleus/aberration tests
ASSAY_DETAILS: CCRIS mutagenicity studies
DETAILS: Test System: AMES SALMONELLA TYPHIMURIUM; Strain/Indicator: TA100; Metabolic Activation: RAT, LIVER, S-9, AROCLOR; Method: PREINCUBATION
The source made the active and inactive calls. No rule for the calls is given here.
Outcome codes: YES for active, NO for inactive

SMILES_ENTRY	CLASS_NAME
CCCC[N+](=O)[O-]	NO
CC=C(Cl)Cl	NO
C=CC(=O)CC	YES
O=C(/C=C/c1ccc([N+](=O)[O-])cc1)c1ccccc1	YES

###

System: CCRIS mutagenicity, Ames/micronucleus/aberration tests
ASSAY_DETAILS: CCRIS mutagenicity studies
DETAILS: Test System: AMES SALMONELLA TYPHIMURIUM; Strain/Indicator: TA1530; Metabolic Activation: NONE; Method: STANDARD PLATE
Calls of active or inactive are those of the source. The rule behind the calls is not given here.
Possible outcomes: active, inactive

COMPOUND	CLASS_NAME
[N-]=[N+]=NCCC(N)C(=O)O (centres undefined)	active
O=C(CCCN1CCN(c2ccccn2)CC1)c1ccc(F)cc1	inactive
O=C(CCCN1CCC(O)(c2ccc(Cl)cc2)CC1)c1ccc(F)cc1	inactive
NNc1ccccc1	active

###

System: CCRIS mutagenicity, Ames/micronucleus/aberration tests
ASSAY_DETAILS: CCRIS mutagenicity studies
DETAILS: Test System: AMES SALMONELLA TYPHIMURIUM; Strain/Indicator: TA98; Metabolic Activation: MOUSE, LIVER, S-9, AROCLOR 1254; Method: STANDARD PLATE
Activity calls are given as the source filed them. How the calls were made is not given here.
Outcome codes: active, inactive

SMILES_ENTRY	CLASS_NAME
CCn1cc(C(=O)O)c(=O)c2cc(F)c(-c3ccncc3)c(F)c21	inactive
COc1ccc(N)c(OC)c1	inactive
COc1cc(O)c2c(O)c3c(=O)oc(C)cc3c(OC)c2c1	active
c1ccc2c(c1)-c1cccc3c1c-2cc1ccccc13	active
CCN(N=O)c1ccccc1	inactive
Nc1ncc([N+](=O)[O-])s1	inactive
O=C(CCCN1CCC(O)(c2ccc(Cl)cc2)CC1)c1ccc(F)cc1	inactive

###

Test system: CCRIS mutagenicity, Ames/micronucleus/aberration tests
ASSAY_DETAILS: CCRIS mutagenicity studies
DETAILS: Test System: AMES SALMONELLA TYPHIMURIUM; Strain/Indicator: TA1538; Metabolic Activation: NONE; Method: STANDARD PLATE
Calls of active or inactive are those of the source. No rule for the calls is given here.
Outcomes: active, inactive

SMILES_ENTRY	CLASS_NAME
CCOC(=O)COc1ccc2c(=O)cc(-c3ccccc3)oc2c1	inactive
COC1=CC=CC=CC1	active
Oc1ccc2c(O)c3ccccc3cc2c1O	inactive
CN(CCO)C(=O)Nc1ccccc1	inactive
C=CC(=O)OCCOCCOC(=O)C=C	inactive
O=c1cc(-c2ccc(O)cc2)oc2cc(O)cc(O)c12	inactive
CCC1(c2ccccc2)C(=O)NC(=O)NC1=O	inactive
Oc1ccccc1-c1ccccc1	inactive
CCCOc1cc(N=Nc2ccccc2)ccc1N=Nc1c(S(=O)(=O)O)cc2ccc(N)cc2c1O	inactive
COC(=O)c1ccc(O)cc1	inactive
NCc1cccc(CN)c1	inactive
O=C(O)c1ccccc1Nc1cc(Cl)ccc1C(=O)O	inactive
O=C(Cn1c(=O)sc2ccccc21)OCc1ccccc1	inactive
O=C(CCc1ccc(O)cc1)c1c(O)cc(O)cc1O	inactive
